System: Immunoglobulin E (IgE) (Homo sapiens), P01854-1
Sequence (P01854 other isoform, or with tags, fused parts or gaps): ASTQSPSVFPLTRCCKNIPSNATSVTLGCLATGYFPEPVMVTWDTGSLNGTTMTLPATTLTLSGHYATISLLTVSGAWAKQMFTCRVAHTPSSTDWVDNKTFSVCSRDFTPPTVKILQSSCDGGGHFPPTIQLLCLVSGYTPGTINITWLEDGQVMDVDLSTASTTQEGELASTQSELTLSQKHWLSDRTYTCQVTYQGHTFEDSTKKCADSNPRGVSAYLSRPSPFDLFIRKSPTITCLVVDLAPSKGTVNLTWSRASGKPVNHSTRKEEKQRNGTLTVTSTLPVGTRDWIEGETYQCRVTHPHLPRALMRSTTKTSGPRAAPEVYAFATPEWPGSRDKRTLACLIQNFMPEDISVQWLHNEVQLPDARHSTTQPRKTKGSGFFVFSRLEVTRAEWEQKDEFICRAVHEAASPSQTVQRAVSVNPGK
Experiment: filter
Details: 2'-OMe at 1; 3' idT [1=2'-OMe G; 38=3' inverted dT]; DPBS Mg/Ca, BSA
Measurement name: Kd (nM)
Respond with the bare value in nM.

Challenge: Enter reported Kd observed with Immunoglobulin E (IgE) (Homo sapiens), P01854-1 for GGGGCTACTTTATCCGTTCCTCCTAGTGGGTAGCCCCT [ARC1265]
Response given: 0.2

---

Tested on: Immunoglobulin E (IgE) (Homo sapiens), P01854-1
Assay: filter
Details: dRmY: 2'-deoxy A,G; 2'-OMe C,U; error 4; dPBS Ca/Mg + BSA, RT
Measurement name: pKd
Kindly note that pKd refers to -log10 of the concentration in mol/L and answer with the value alone.

Challenge: # get_value(readout='pKd', item= GGGAGAGGAGAGAACGUUCUACGAGCAGCCCUGGGGCCCGGAGGGGGAUGGUCGCUGUCGAUCGAUCGAUCGAUG [ARC1993] )
Response given: 8.05

---

System: Immunoglobulin E (IgE) (Homo sapiens), P01854-1
Assay: filter
Details: ARC1666 chemistry + PS 5-6; 3' idT; DPBS Mg/Ca, BSA, RT
Measurement name: pKd
Kindly note that pKd refers to -log10 of the concentration in mol/L and answer with the value alone.

Challenge: Enter reported pKd observed with Immunoglobulin E (IgE) (Homo sapiens), P01854-1 for AGCCUNGGGNGACCCAUNNNGNNGNNGCUN [ARC2973]
Response given: 10.30

---

Tested on: Immunoglobulin E (IgE) (Homo sapiens), P01854-1
Assay: inhibition
Details: 2'-F C,U; ELISA FceR1-Fc; FACS 14 nM (Table 25)
Measurement name: IC50 (nM)
Respond with the bare value in nM.

Challenge: # get_value(readout='IC50', item= GGGAAAAGCGAAUCAUACACAAGACGUCGCCAGAUUGAGUGUCGUGGUUCGGGUUGAGGCGGAAGCUCCGCCAGAGACCAACCGAGAA [rRfY clone SEQ 11] )
Response given: 2.6

---

System: Immunoglobulin E (IgE) (Homo sapiens), P01854-1
Experiment: inhibition
Conditions: 2'-F C,U; ELISA FceR1-Fc; FACS 10.3 nM (Table 25)
Measurement name: IC50 (nM)
Respond with the bare value in nM.

Challenge: # get_value(readout='IC50', item= GGGAAAAGCGAAUCAUACACAAGAGUCGCUAGAUUGCUAGUGUAUGGUUUAUCUAAAGGCGGCCGCUCCGCCAGAGACCAACCGAGAA [rRfY clone SEQ 13] )
Response given: 4.3

---

System: Immunoglobulin E (IgE) (Homo sapiens), P01854-1
Assay: filter
Settings: 2'-OMe at 1-4,7,11,17,18,20,33-37; 3' idT [2'-OMe: 1-4,7,11,17,18,20,33-37; 38 = 3' inverted dT]; DPBS Mg/Ca, BSA
Measurement name: Kd (nM)
Respond with the bare value in nM.

Challenge: # get_value(readout='Kd', item= GGGGCTACTTUATCCGUUCCTCCTAGTGGGTAGCCCC [ARC1389] )
Response given: 5.4

---

System: Immunoglobulin E (IgE) (Homo sapiens), P01854-1
Assay: filter
Conditions: DNA with 2'-OMe G1-G4,A7,G30,A32,G33; 3' idT [2'-OMe G1-G4, A7, G30, A32, G33; 3' inverted dT at 38]; dPBS Ca/Mg + BSA
Measurement name: pKd
Kindly note that pKd refers to -log10 of the concentration in mol/L and answer with the value alone.

Challenge: Enter reported pKd observed with Immunoglobulin E (IgE) (Homo sapiens), P01854-1 for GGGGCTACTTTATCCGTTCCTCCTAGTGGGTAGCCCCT [ARC1302]
Response given: 7.72
